Tested on: SNB-75 CNS
assayProcedure: NCI tumour cell line growth inhibition, 48 h
observationType: TGI

compound: CCOC(=O)CCC1(C(=O)O[C@@H]2C[C@H](C)CC[C@H]2C(C)C)CCCCC1=O (stereo not given in full)
testedSystem: SNB-75 CNS
TGI: > 100 µM

compound: CC(=O)c1nc(C#N)c(N)o1
testedSystem: SNB-75 CNS
TGI: > 100 µM

compound: Cc1cccc(-c2cc(=O)c3cc(C)cnc3[nH]2)c1
testedSystem: SNB-75 CNS
TGI: > 100 µM

Fill in: TGI of `O=C(CN1CCN(c2cc3c(cc2F)c(=O)c(C(=O)O)cn3C2CC2)CC1)Nc1ccc(C(=O)/C=C/c2ccccc2)cc1` is ___
> 100 µM

Fill in: TGI of CC1CCCc2c(CC3CC(=O)NC(=O)C3)nc(N)nc21 (stereo not given) is ___
> 100 µM
